The reported measurements were obtained from ChEMBL document CHEMBL1145560.

Consider molecules characterized by their pKi with Mu-type opioid receptor (Homo sapiens).
Sequence (P35372 whole entry): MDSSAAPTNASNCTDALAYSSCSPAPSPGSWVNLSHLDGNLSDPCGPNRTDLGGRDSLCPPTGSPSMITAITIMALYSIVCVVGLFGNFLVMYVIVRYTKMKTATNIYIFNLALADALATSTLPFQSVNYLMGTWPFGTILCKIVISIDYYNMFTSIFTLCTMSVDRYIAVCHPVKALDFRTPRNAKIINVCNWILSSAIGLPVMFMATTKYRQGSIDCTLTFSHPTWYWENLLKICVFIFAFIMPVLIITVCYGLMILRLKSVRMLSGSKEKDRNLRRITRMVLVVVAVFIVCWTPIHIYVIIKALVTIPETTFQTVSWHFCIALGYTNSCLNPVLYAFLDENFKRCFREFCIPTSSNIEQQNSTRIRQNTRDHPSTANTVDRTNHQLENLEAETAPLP
The value called pKi is obtained by taking minus log10 of the concentration in mol/L.

## Input Give a short answer stating reported pKi for COc1cc(CC(=O)N(C)[C@H](CN2CCCC2)c2ccccc2)c(S(=O)(=O)N2CCOCC2)cc1OC .
## Output 7.82

## Input Name the recorded pKi of the item COc1cc(CC(=O)N(C)[C@H](CN2CC[C@H](O)C2)c2ccccc2)c(S(=O)(=O)N2CCN(C)CC2)cc1OC in your answer.
## Output 7.57

## Input Determine its reported pKi: COc1cc(CC(=O)N(C)[C@H](CN2CCCC2)c2ccccc2)c(S(=O)(=O)N(C)Cc2ccccc2)cc1OC
## Output 7.68

## Input Name the recorded pKi of the item CN(C(=O)Cc1cc2c(cc1S(=O)(=O)N(C)C)OCO2)[C@H](CN1CCCC1)c1ccccc1 in your answer.
## Output 7.33

## Input Could you please provide reported pKi for COc1cc(CC(=O)N(C)[C@H](CN2CCCC2)c2ccccc2)c(S(=O)(=O)N(C)C)cc1OC ? Thanks!
## Output 7.38

## Input Provide one value: measured pKi of COc1cc(CC(=O)N(C)[C@H](CN2CCCC2)c2ccccc2)c(S(=O)(=O)N2CCN(C)CC2)cc1OC
## Output 7.28

## Input Please report pKi for the following molecule: CN(C(=O)Cc1cc2c(cc1S(=O)(=O)N(C)Cc1ccccc1)OCO2)[C@H](CN1CCCC1)c1ccccc1
## Output 8.19

## Input Annotate the molecule COc1cc(CC(=O)N(C)[C@H](CN2CC[C@H](O)C2)c2ccccc2)c(S(=O)(=O)N(C)C)cc1OC with its measured pKi.
## Output 7.60

* * *

Exercise: for every item that follows, state its recorded Ki.
Answer format: numeric, nM implied, no suffix.

## Input GET Ki | system: Mu-type opioid receptor (Homo sapiens) | item: COc1cc(CC(=O)N(C)[C@H](CN2CC[C@H](O)C2)c2ccccc2)c(S(=O)(=O)N2CCOCC2)cc1OC
## Output 9

## Input Send back Mu-type opioid receptor (Homo sapiens) Ki of COc1cc(CC(=O)N(C)[C@H](CN2CC[C@H](O)C2)c2ccccc2)c(S(=O)(=O)N2CCCC2)cc1OC only.
## Output 5.9

## Input Please report Ki with Mu-type opioid receptor (Homo sapiens) for item COc1cc(CC(=O)N(C)[C@H](CN2CCCC2)c2ccccc2)c(S(=O)(=O)N2CCCC2)cc1OC .
## Output 14

## Input Look up Mu-type opioid receptor (Homo sapiens) data: Ki of CN(C(=O)Cc1cc2c(cc1S(=O)(=O)N(C)C)OCO2)[C@H](CN1CC[C@H](O)C1)c1ccccc1 , then report it.
## Output 34

* * *

Molecular target: Delta-type opioid receptor (Homo sapiens)
Sequence (P41143 whole entry): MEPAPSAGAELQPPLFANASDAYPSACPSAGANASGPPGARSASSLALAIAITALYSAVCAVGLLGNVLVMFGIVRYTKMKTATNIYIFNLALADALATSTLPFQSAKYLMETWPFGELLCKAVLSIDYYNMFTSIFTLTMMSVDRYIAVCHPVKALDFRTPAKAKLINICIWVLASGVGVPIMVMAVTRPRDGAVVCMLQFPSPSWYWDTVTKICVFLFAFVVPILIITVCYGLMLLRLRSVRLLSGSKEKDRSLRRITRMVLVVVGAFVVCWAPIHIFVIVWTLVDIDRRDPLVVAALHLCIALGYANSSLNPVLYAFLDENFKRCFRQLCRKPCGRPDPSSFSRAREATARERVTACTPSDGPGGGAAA
Experiment: Displacement of [3H]diprenorphine from human delta opioid receptor expressed in CHO-K1 cells
MEASURED_ATTRIBUTE: Ki

## Input Name the recorded Ki of COc1cc(CC(=O)N(C)[C@H](CN2CCCC2)c2ccccc2)c(S(=O)(=O)N2CCN(C)CC2)cc1OC , assay system Delta-type opioid receptor (Homo sapiens).
## Output 23 nM

## Input Please look at CN(C(=O)Cc1cc2c(cc1S(=O)(=O)N(C)C)OCO2)[C@H](CN1CC[C@H](O)C1)c1ccccc1 and tell me its recorded Ki on Delta-type opioid receptor (Homo sapiens).
## Output 6.2 nM

## Input Would you please give the reported Ki of COc1cc(CC(=O)N(C)[C@H](CN2CC[C@H](O)C2)c2ccccc2)c(S(=O)(=O)N(C)C)cc1OC with Delta-type opioid receptor (Homo sapiens)?
## Output 9.3 nM

## Input Fill in: Ki on Delta-type opioid receptor (Homo sapiens), entry CN(C(=O)Cc1cc2c(cc1S(=O)(=O)N(C)Cc1ccccc1)OCO2)[C@H](CN1CCCC1)c1ccccc1
## Output 3.4 nM

* * *

Molecular target: Delta-type opioid receptor (Homo sapiens)
Assay: Displacement of [3H]diprenorphine from human delta opioid receptor expressed in CHO-K1 cells
MEASURED_ATTRIBUTE: pKi
For clarity, pKi is expressed as the negative log10 of concentration in mol/L.

## Input Return value of pKi for input CN(C(=O)Cc1cc2c(cc1S(=O)(=O)N(C)C)OCO2)[C@H](CN1CCCC1)c1ccccc1 , no commentary.
## Output 6.96

## Input Identify measured pKi corresponding to COc1cc(CC(=O)N(C)[C@H](CN2CC[C@H](O)C2)c2ccccc2)c(S(=O)(=O)N2CCN(C)CC2)cc1OC
## Output 8.36

## Input For the molecule COc1cc(CC(=O)N(C)[C@H](CN2CC[C@H](O)C2)c2ccccc2)c(S(=O)(=O)N2CCOCC2)cc1OC , give its measured pKi value.
## Output 8.74

## Input Identify measured pKi corresponding to COc1cc(CC(=O)N(C)[C@H](CN2CCCC2)c2ccccc2)c(S(=O)(=O)N2CCCC2)cc1OC
## Output 8.27

## Input Query pKi for COc1cc(CC(=O)N(C)[C@H](CN2CCCC2)c2ccccc2)c(S(=O)(=O)N(C)Cc2ccccc2)cc1OC
## Output 8.82

## Input For the molecule COc1cc(CC(=O)N(C)[C@H](CN2CC[C@H](O)C2)c2ccccc2)c(S(=O)(=O)N2CCCC2)cc1OC , report pKi.
## Output 9.07

## Input Let me know recorded pKi for COc1cc(CC(=O)N(C)[C@H](CN2CCCC2)c2ccccc2)c(S(=O)(=O)N2CCOCC2)cc1OC , thanks.
## Output 8.03

## Input For COc1cc(CC(=O)N(C)[C@H](CN2CCCC2)c2ccccc2)c(S(=O)(=O)N(C)C)cc1OC , write its pKi.
## Output 7.25

* * *

What follows is a record of Ki for Kappa-type opioid receptor (Homo sapiens).
// units = nM; emit number, no label

## Input Provide measured Ki value, entry: COc1cc(CC(=O)N(C)[C@H](CN2CC[C@H](O)C2)c2ccccc2)c(S(=O)(=O)N2CCOCC2)cc1OC
## Output 1.4

## Input Using the record for COc1cc(CC(=O)N(C)[C@H](CN2CC[C@H](O)C2)c2ccccc2)c(S(=O)(=O)N2CCCC2)cc1OC , state its measured Ki.
## Output 1.1

## Input Indicate its recorded Ki; the compound in question is COc1cc(CC(=O)N(C)[C@H](CN2CCCC2)c2ccccc2)c(S(=O)(=O)N2CCOCC2)cc1OC
## Output 0.55

## Input Quick one: give measured Ki for COc1cc(CC(=O)N(C)[C@H](CN2CC[C@H](O)C2)c2ccccc2)c(S(=O)(=O)N(C)C)cc1OC
## Output 1.6

## Input Fill in reported Ki for this entry: CN(C(=O)Cc1cc2c(cc1S(=O)(=O)N(C)C)OCO2)[C@H](CN1CC[C@H](O)C1)c1ccccc1
## Output 0.54

## Input Provide one value: measured Ki of COc1cc(CC(=O)N(C)[C@H](CN2CCCC2)c2ccccc2)c(S(=O)(=O)N2CCCC2)cc1OC
## Output 0.31

## Input Supply Ki value. Item: CN(C(=O)Cc1cc2c(cc1S(=O)(=O)N(C)C)OCO2)[C@H](CN1CCCC1)c1ccccc1
## Output 0.22

## Input Name the recorded Ki of the item COc1cc(CC(=O)N(C)[C@H](CN2CCCC2)c2ccccc2)c(S(=O)(=O)N(C)Cc2ccccc2)cc1OC in your answer.
## Output 0.68

## Input Name the recorded Ki of the compound listed here: COc1cc(CC(=O)N(C)[C@H](CN2CCCC2)c2ccccc2)c(S(=O)(=O)N(C)C)cc1OC
## Output 0.5

## Input Answer with the recorded Ki for the compound listed here: COc1cc(CC(=O)N(C)[C@H](CN2CC[C@H](O)C2)c2ccccc2)c(S(=O)(=O)N2CCN(C)CC2)cc1OC
## Output 3.8

## Input Check the records and state Ki for CN(C(=O)Cc1cc2c(cc1S(=O)(=O)N(C)Cc1ccccc1)OCO2)[C@H](CN1CCCC1)c1ccccc1
## Output 0.19

* * *

Assay: Displacement of [3H]diprenorphine from human kappa/mu opioid chimera 4 receptor
Give pKi for every item shown.
Please report pKi as the negative decimal logarithm of the molar concentration, giving only the number.

## Input Provide pKi value for the following compound: COc1cc(CC(=O)N(C)[C@H](CN2CC[C@H](O)C2)c2ccccc2)c(S(=O)(=O)N2CCCC2)cc1OC
## Output 8.08

## Input Provide one value: measured pKi of COc1cc(CC(=O)N(C)[C@H](CN2CCCC2)c2ccccc2)c(S(=O)(=O)N2CCCC2)cc1OC
## Output 8.92

## Input In one line, give reported pKi of the entry CN(C(=O)Cc1cc2c(cc1S(=O)(=O)N(C)C)OCO2)[C@H](CN1CC[C@H](O)C1)c1ccccc1 .
## Output 9.30

## Input Consider the compound CN(C(=O)Cc1cc2c(cc1S(=O)(=O)N(C)Cc1ccccc1)OCO2)[C@H](CN1CCCC1)c1ccccc1 . State its measured pKi.
## Output 8.77

## Input Indicate the recorded pKi value for this compound: CC[C@H](C)[C@H](NC(=O)[C@H](CCCNC(=N)N)NC(=O)[C@H](CCCNC(=N)N)NC(=O)[C@H](CC(C)C)NC(=O)[C@H](Cc1ccccc1)NC(=O)CNC(=O)CNC(=O)[C@@H](N)Cc1ccc(O)cc1)C(=O)N[C@@H](CCCNC(=N)N)C(=O)N1CCC[C@H]1C(=O)N[C@@H](CCCCN)C(=O)N[C@@H](CC(C)C)C(=O)N[C@@H](CCCCN)C(=O)N[C@@H](Cc1c[nH]c2ccccc12)C(=O)N[C@@H](CC(=O)O)C(=O)N[C@@H](CC(N)=O)C(=O)N[C@@H](CCC(N)=O)C(=O)O [DYNORPHIN A (1-17)]
## Output 9.74

## Input Quote pKi reported for COc1cc(CC(=O)N(C)[C@H](CN2CCCC2)c2ccccc2)c(S(=O)(=O)N(C)Cc2ccccc2)cc1OC please.
## Output 8.32

## Input Answer with the recorded pKi for the compound listed here: CN(C(=O)Cc1cc2c(cc1S(=O)(=O)N(C)C)OCO2)[C@H](CN1CCCC1)c1ccccc1
## Output 9.15

## Input Determine from records and report pKi for COc1cc(CC(=O)N(C)[C@H](CN2CCCC2)c2ccccc2)c(S(=O)(=O)N2CCOCC2)cc1OC
## Output 8.66

## Input Name the recorded pKi of the compound listed here: COc1cc(CC(=O)N(C)[C@H](CN2CCCC2)c2ccccc2)c(S(=O)(=O)N(C)C)cc1OC
## Output 8.60

## Input Identify measured pKi associated with COc1cc(CC(=O)N(C)[C@H](CN2CC[C@H](O)C2)c2ccccc2)c(S(=O)(=O)N(C)C)cc1OC
## Output 8.55

## Input Please report pKi for the following compound: COc1cc(CC(=O)N(C)[C@H](CN2CCCC2)c2ccccc2)c(S(=O)(=O)N2CCN(C)CC2)cc1OC
## Output 8.17
